# measurement_description: inhibition of NOD1-driven NF-kB reporter – cell-based, luminescence, uHTS, primary screen (AID 1578);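 further: HEK-293T reporter cells stimulated with the NOD1 agonist gamma-tri-DAP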
# particulars: NOD1-driven NF-kB luciferase reporter cells, at 4 µM, active compounds read high
Among all 290,000 compounds or so, about 3,000 (1%) were called active. The entries come from a sample that favours actives as a whole.

compound: O=c1[nH]c(=O)n(-c2ccccc2)c(O)c1/C=C1/C(c2ccccc2)=Nc2ccccc21
display_unit: %
inhibition: 81.6

compound: Cc1nc2cc(C(F)(F)F)ccc2n1C1CCN(Cc2nnnn2CCc2ccccc2)CC1
display_unit: %
inhibition: -27.2

compound: COC(=O)C1=Nc2ccccc2/C1=C\c1c(O)n(-c2ccc(OC)cc2)c(=O)[nH]c1=O
display_unit: %
inhibition: 9.9

compound: CCC(C)C12CN3CCN(CC(C)(C3)C1=O)C2 (stereo not given)
display_unit: %
inhibition: 4.3

compound: Cc1nc2cc(C(F)(F)F)ccc2n1C1CCN(Cc2nnnn2Cc2cccs2)CC1
display_unit: %
inhibition: -21.1
